Consider the following molecules; for each one, report its pIC50.
- TEST SYSTEM: 5-lipoxygenase (Rattus norvegicus, UniProt P12527)
- Construct: endogenous in cells
- Sequence (P12527 whole entry): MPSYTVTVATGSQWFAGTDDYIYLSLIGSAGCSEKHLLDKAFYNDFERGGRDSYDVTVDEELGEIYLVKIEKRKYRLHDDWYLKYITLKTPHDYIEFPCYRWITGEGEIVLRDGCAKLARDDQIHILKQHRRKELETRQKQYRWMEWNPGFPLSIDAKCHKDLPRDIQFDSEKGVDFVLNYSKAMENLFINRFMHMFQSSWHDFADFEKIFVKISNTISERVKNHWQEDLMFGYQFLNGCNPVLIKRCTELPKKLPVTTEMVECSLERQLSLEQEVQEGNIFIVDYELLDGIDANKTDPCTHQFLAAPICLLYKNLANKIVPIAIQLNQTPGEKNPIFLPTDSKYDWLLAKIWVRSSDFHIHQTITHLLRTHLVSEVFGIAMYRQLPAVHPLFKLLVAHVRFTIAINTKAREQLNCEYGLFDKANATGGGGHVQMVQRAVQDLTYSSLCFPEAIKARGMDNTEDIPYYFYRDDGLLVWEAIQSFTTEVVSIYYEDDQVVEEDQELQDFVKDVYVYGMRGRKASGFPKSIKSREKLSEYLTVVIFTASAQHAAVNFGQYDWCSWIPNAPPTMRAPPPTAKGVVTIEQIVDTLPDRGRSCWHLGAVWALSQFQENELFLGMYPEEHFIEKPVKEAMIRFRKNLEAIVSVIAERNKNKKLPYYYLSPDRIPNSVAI
- METHOD DESCRIPTION: Inhibition of 5-lipoxygenase in rat basophilic leukemia cells (5-HETE and LTB4 formation from [14C]-arachidonic acid)
- MEASUREMENT CONTEXT: indomethacin 10 μM, A 23187, room temperature, 5 minutes, read-out: IC50 for inhibition of 5-lipoxygenase (I)
Worth noting: pIC50 values are minus log10 of concentrations stated in mol/L.

Query block: Field request: pIC50 | item: Oc1ccc(/C=C\CCCCCC/C=C/C(O)C2CCCCC2)cc1O (stereo not shown) [Example 22d]
Result block: 5.55

Query block: Next entry: CCCCCC(O)C#CCCCCCCC#Cc1ccc(O)c(O)c1 (stereo not shown)
Result block: 6.68

Query block: Next entry: Oc1ccc(C#CCCCCCC/C=C/C(O)C2CCCCC2)cc1O (stereo not shown) [Example 22c]
Result block: 5.54

Query block: Next entry: OCC#CCCCCCCC#Cc1ccc(O)c(O)c1
Result block: 6.82
